details: in isopropanol, 305.2 K
Recorded Endpoint: solubility (mole fraction)
Output spec: single numeric token, no unit.

Would you kindly share the measured solubility (mole fraction) for C[C@H]1[C@H](C)CC[C@]2(C(=O)O)CC[C@]3(C)C(=CC[C@@H]4[C@@]5(C)CC[C@H](O)C(C)(C)[C@@H]5CC[C@]43C)[C@H]12 ?
0.00197

---

conditions: in methanol, 323.2 K
Recorded Endpoint: solubility (mole fraction)
Output spec: single numeric token, no unit.

Would you kindly share the measured solubility (mole fraction) for C[C@H]1[C@H](C)CC[C@]2(C(=O)O)CC[C@]3(C)C(=CC[C@@H]4[C@@]5(C)CC[C@H](O)C(C)(C)[C@@H]5CC[C@]43C)[C@H]12 ?
0.00132

---

details: in methanol, 310 K
Recorded Endpoint: solubility (mole fraction)
Output spec: single numeric token, no unit.

Would you kindly share the measured solubility (mole fraction) for C[C@H]1[C@H](C)CC[C@]2(C(=O)O)CC[C@]3(C)C(=CC[C@@H]4[C@@]5(C)CC[C@H](O)C(C)(C)[C@@H]5CC[C@]43C)[C@H]12 ?
0.00102

---

settings: in ethanol, 305.2 K
Recorded Endpoint: solubility (mole fraction)
Output spec: single numeric token, no unit.

Would you kindly share the measured solubility (mole fraction) for C[C@H]1[C@H](C)CC[C@]2(C(=O)O)CC[C@]3(C)C(=CC[C@@H]4[C@@]5(C)CC[C@H](O)C(C)(C)[C@@H]5CC[C@]43C)[C@H]12 ?
0.000735

---

details: in ethanol, 293.6 K
Recorded Endpoint: solubility (mole fraction)
Output spec: single numeric token, no unit.

Would you kindly share the measured solubility (mole fraction) for C[C@H]1[C@H](C)CC[C@]2(C(=O)O)CC[C@]3(C)C(=CC[C@@H]4[C@@]5(C)CC[C@H](O)C(C)(C)[C@@H]5CC[C@]43C)[C@H]12 ?
0.000514

---

conditions: in methanol, 300.1 K
Recorded Endpoint: solubility (mole fraction)

Would you kindly share the measured solubility (mole fraction) for C[C@H]1[C@H](C)CC[C@]2(C(=O)O)CC[C@]3(C)C(=CC[C@@H]4[C@@]5(C)CC[C@H](O)C(C)(C)[C@@H]5CC[C@]43C)[C@H]12 ?
0.000851
